- TARGET DESC: Endothelial PAS domain-containing protein 1 (Homo sapiens) (UniProt Q99814)
- METHOD NOTES: HIF-2a and HIF-1a reporter inhibition panel, dose response, selectivity assay for HIF-2a inhibitor project, cell-based, luminescence (AID 651581)
- APPLIED CONDITIONS: HIF-2a PANC, run 1
MEASURE NAME: IC50 (µM)
Give a bare numeral; the unit µM is implied.

A selection of reference data follows.
[
  {
    "SMILES INPUT": "CCOC(=O)c1cccc(NC(=O)/C=C/c2ccc3c(c2)OCO3)c1",
    "UNIT SPEC": "µM",
    "IC50": 42.7
  },
  {
    "SMILES INPUT": "COC(=O)CSc1nnc(-c2sc3ccccc3c2Cl)o1",
    "UNIT SPEC": "µM",
    "IC50": 4.35
  },
  {
    "SMILES INPUT": "Cc1cc(NC(=O)c2ccccc2)c(Cl)cc1N",
    "UNIT SPEC": "µM",
    "IC50": 10.1
  },
  {
    "SMILES INPUT": "Cc1ccc(C(C)C)c(OCc2ccc(C(=O)N/N=C/c3ccc(C(=O)O)cc3)cc2)c1",
    "UNIT SPEC": "µM",
    "IC50": 0.507
  }
]

// switching to the query compound
Q: Please look up its IC50: CCOc1ccc(OCc2cccc(C(=O)N/N=C/c3cccnc3)c2)cc1
Result: 16.7

====

- TARGET DESC: Hypoxia-inducible factor 1-alpha (Homo sapiens)
- METHOD NOTES: HIF-2a and HIF-1a reporter inhibition panel, dose response, selectivity assay for HIF-2a inhibitor project, cell-based, luminescence (AID 651581)
- APPLIED CONDITIONS: HIF-1a, run 1
Note: every record was labeled by where its IC50 sits among bucket 1 = under 10 µM, bucket 2 = from 10 µM up to 30 µM, bucket 3 = 30 µM and over

Worked examples follow.
[
  {
    "COMPOUND": "O=C(c1ccccc1)c1cc(Cl)ccc1N1C(=O)C=CC1=O",
    "GROUP LABEL": "bucket 3"
  },
  {
    "COMPOUND": "CN(C)c1ccc(Nc2nc(N)c3ccccc3n2)cc1",
    "GROUP LABEL": "bucket 2"
  },
  {
    "COMPOUND": "Cc1nc(SCc2ccc(C(=O)O)cc2)nc2c1CCCC2",
    "GROUP LABEL": "bucket 2"
  },
  {
    "COMPOUND": "Cc1cc(C)c(C)c(S(=O)(=O)ON2C(=O)c3ccccc3C2=O)c1C",
    "GROUP LABEL": "bucket 3"
  },
  {
    "COMPOUND": "COc1ccc(OCc2cccc(C(=O)NN)c2)cc1",
    "GROUP LABEL": "bucket 3"
  },
  {
    "COMPOUND": "COc1ccc2nc(-c3ccc(N)cc3)[nH]c2c1",
    "GROUP LABEL": "bucket 3"
  },
  {
    "COMPOUND": "CC(=O)N(C(C)=O)c1ccc(Oc2ccc(Oc3ccc(N(C(C)=O)C(C)=O)cc3)cc2)cc1",
    "GROUP LABEL": "bucket 2"
  },
  {
    "COMPOUND": "COC(=O)c1ccc(C(=O)OC)c(-n2c(=O)c3ccccc3c3ccccc3c2=O)c1",
    "GROUP LABEL": "bucket 3"
  },
  {
    "COMPOUND": "NC(=O)COC(=O)CCCSc1nc2ccccc2s1",
    "GROUP LABEL": "bucket 1"
  },
  {
    "COMPOUND": "O=C(Nc1ccc(NC(=O)c2cccs2)cc1)c1ccc2c(c1)OCCO2",
    "GROUP LABEL": "bucket 3"
  }
]

Q: Pick a category. Item: CCOC(=O)NC(=O)COC(=O)CCCSc1nc2ccccc2s1
Result: bucket 2

Q: Pick a category. Item: O=C(CCCc1nc(-c2ccccc2Cl)no1)NC1CCCC1
Result: bucket 1

Q: Pick a category. Item: CC(C)c1ccc(/C=N/Nc2ccc(C(=O)O)cc2)cc1
Result: bucket 2

Q: Pick a category. Item: Cc1ccc(Oc2ccc(OCC(=O)Nc3ccncc3)cc2)cc1
Result: bucket 2

Q: Pick a category. Item: CC(C)COc1ccc(C(=S)N2CCCC2)cc1
Result: bucket 3

Q: Pick a category. Item: O=C(Nc1ccc(NC(=S)NC(=O)c2ccco2)cc1)c1ccc(Br)cc1
Result: bucket 1

Q: Pick a category. Item: S=C(c1ccc(-c2ccccc2)cc1)N1CCOCC1
Result: bucket 1

Q: Pick a category. Item: O=C(O)COc1ccc2oc3ccccc3c2c1
Result: bucket 2

====

- TARGET DESC: Hypoxia-inducible factor 1-alpha (Homo sapiens)
- METHOD NOTES: HIF-2a and HIF-1a reporter inhibition panel, dose response, selectivity assay for HIF-2a inhibitor project, cell-based, luminescence (AID 651581)
- APPLIED CONDITIONS: HIF-1a, run 1
MEASURE NAME: IC50 (µM)
Give a bare numeral; the unit µM is implied.

A selection of reference data follows.
[
  {
    "SMILES INPUT": "CCOC(=O)c1ccc(Oc2nc(NC(C)(C)C)nc(N(C)C)n2)cc1",
    "VALUE OBSERVED": 21.8
  },
  {
    "SMILES INPUT": "CCNC(=O)NC(=O)COC(=O)CCCSc1nc2ccccc2s1",
    "VALUE OBSERVED": 28.3
  },
  {
    "SMILES INPUT": "COc1cccc(/C=N/Nc2ncccc2[N+](=O)[O-])c1OC",
    "VALUE OBSERVED": 20.3
  },
  {
    "SMILES INPUT": "CCOC(=O)Cc1csc(NC(=S)NC(=O)c2ccc([N+](=O)[O-])cc2)n1",
    "VALUE OBSERVED": 55.3
  },
  {
    "SMILES INPUT": "O=C(O)c1ccc2nc(-c3ccccc3)sc2c1",
    "VALUE OBSERVED": 26.6
  },
  {
    "SMILES INPUT": "CC(=O)Nc1ccc(Oc2sc(C(=O)c3ccccc3)c(N)c2C#N)cc1",
    "VALUE OBSERVED": 27.7
  }
]

Q: Please look up its IC50: Cn1c(/C=C/c2ccc(Cl)cc2)c([N+](=O)[O-])c(=O)n(C)c1=O
Result: 26

====

- TARGET DESC: Endothelial PAS domain-containing protein 1 (Homo sapiens)
- METHOD NOTES: HIF-2a and HIF-1a reporter inhibition panel, dose response, selectivity assay for HIF-2a inhibitor project, cell-based, luminescence (AID 651581)
- APPLIED CONDITIONS: HIF-2a PANC, run 2
MEASURE NAME: pIC50
Formally, pIC50 is defined as -log10 of the concentration c, with c in mol/L.

A selection of reference data follows.
[
  {
    "SMILES INPUT": "C=CS(=O)(=O)c1sc(Cl)c(N2CCOCC2)c1[N+](=O)[O-]",
    "TARGET DESC": "Endothelial PAS domain-containing protein 1 (Homo sapiens)",
    "MEASURE NAME": "pIC50",
    "VALUE OBSERVED": 4.81
  },
  {
    "SMILES INPUT": "Cn1ncc2c(O/N=C(\\N)c3ccc(C(C)(C)C)cc3)ncnc21",
    "TARGET DESC": "Endothelial PAS domain-containing protein 1 (Homo sapiens)",
    "MEASURE NAME": "pIC50",
    "VALUE OBSERVED": 4.34
  },
  {
    "SMILES INPUT": "CNC(=O)NC(=O)COC(=O)CCCSc1nc2ccccc2s1",
    "TARGET DESC": "Endothelial PAS domain-containing protein 1 (Homo sapiens)",
    "MEASURE NAME": "pIC50",
    "VALUE OBSERVED": 5.25
  },
  {
    "SMILES INPUT": "COc1ccc(/C=C2\\SC(=O)N(CCNC(=O)Cn3[nH]c(=O)c4ccccc4c3=O)C2=O)cc1",
    "TARGET DESC": "Endothelial PAS domain-containing protein 1 (Homo sapiens)",
    "MEASURE NAME": "pIC50",
    "VALUE OBSERVED": 5.15
  }
]

Q: Record lookup: for Endothelial PAS domain-containing protein 1 (Homo sapiens), what pIC50 belongs to Cc1ccc(Oc2ccc(OCC(=O)Nc3ccncc3)cc2)cc1 ?
Result: 5.47

Q: Record lookup: for Endothelial PAS domain-containing protein 1 (Homo sapiens), what pIC50 belongs to CC(C)C[C@@H](N)c1nnc(SCC(=O)c2ccc(Cl)cc2)o1 ?
Result: 5.44

Q: Record lookup: for Endothelial PAS domain-containing protein 1 (Homo sapiens), what pIC50 belongs to COC(=O)COc1ccc(-c2nccc(-c3ccccn3)n2)cc1 ?
Result: 5.61

Q: Record lookup: for Endothelial PAS domain-containing protein 1 (Homo sapiens), what pIC50 belongs to COC(=O)CSc1nnc(-c2sc3ccccc3c2Cl)o1 ?
Result: 5.25
